# reported pIC50; entries follow
TEST SYSTEM: MutSβ (Homo sapiens, UniProt P20585+P43246)
Sequence (P43246 whole entry): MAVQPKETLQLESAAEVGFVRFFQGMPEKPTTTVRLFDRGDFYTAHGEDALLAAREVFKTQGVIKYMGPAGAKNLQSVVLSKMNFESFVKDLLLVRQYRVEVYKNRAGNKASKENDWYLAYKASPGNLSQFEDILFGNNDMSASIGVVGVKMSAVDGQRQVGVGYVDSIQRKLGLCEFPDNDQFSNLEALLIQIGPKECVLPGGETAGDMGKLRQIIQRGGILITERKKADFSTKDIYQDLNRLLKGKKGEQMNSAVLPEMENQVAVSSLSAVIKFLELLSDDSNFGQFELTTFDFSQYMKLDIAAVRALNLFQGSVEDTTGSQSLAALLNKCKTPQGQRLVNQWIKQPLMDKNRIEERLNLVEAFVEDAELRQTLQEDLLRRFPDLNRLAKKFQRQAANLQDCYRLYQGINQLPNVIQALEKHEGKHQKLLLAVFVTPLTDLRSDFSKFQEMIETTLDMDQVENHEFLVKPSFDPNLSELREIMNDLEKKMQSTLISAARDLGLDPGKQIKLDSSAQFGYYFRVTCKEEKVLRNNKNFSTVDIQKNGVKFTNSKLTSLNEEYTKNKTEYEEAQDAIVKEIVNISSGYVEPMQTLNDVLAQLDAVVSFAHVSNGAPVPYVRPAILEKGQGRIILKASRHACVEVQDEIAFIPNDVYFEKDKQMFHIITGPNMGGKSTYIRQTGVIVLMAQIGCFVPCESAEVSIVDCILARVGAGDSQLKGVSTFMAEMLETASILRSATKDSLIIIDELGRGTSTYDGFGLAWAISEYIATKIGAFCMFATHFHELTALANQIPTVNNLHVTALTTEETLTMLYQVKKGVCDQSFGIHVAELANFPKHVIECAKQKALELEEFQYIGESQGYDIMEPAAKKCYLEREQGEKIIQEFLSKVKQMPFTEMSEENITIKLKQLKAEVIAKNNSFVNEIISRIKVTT
Sequence (P20585 whole entry): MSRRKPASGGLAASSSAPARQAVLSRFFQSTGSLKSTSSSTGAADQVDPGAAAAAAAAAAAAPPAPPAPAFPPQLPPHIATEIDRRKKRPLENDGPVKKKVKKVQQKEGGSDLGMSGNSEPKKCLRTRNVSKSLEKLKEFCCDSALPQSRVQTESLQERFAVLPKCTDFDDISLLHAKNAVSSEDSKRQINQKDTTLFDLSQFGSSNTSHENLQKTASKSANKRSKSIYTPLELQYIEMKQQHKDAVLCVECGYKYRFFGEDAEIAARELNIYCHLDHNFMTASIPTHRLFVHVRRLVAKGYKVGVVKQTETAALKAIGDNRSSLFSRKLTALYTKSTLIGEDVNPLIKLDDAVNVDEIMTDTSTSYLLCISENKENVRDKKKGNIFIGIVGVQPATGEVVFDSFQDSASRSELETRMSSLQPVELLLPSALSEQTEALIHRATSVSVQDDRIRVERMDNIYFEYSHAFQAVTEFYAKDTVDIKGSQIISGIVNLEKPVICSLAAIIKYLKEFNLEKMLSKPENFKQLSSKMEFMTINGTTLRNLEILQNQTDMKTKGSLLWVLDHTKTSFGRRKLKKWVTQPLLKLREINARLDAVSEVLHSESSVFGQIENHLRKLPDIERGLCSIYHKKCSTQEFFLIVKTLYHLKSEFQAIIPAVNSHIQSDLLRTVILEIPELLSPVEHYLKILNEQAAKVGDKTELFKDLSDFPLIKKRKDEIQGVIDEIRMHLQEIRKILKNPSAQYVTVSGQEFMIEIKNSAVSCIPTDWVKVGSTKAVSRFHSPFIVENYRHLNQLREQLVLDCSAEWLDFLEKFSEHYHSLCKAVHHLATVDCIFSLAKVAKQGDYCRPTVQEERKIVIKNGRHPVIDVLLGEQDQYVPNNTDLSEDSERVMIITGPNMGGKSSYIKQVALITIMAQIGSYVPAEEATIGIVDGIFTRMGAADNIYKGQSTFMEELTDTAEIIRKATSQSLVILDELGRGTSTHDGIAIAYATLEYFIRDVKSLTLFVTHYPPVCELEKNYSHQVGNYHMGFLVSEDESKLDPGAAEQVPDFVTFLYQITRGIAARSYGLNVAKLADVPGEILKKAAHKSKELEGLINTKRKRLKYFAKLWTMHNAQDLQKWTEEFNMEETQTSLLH
ASSAY NAME: MutSβ ADP Glo Assay
TEST PARAMETERS: 20nM MutSβ, 30nM CAG DNA, 25 µM ATP, 2 hours at room temperature
pIC50: −log10 of the molar value.

# count of solved cases: 3
Identify the reported pIC50 for the following entry. CNS(=O)(=O)OCC(=O)Nc1nc(C)c(Cc2ccccc2C)s1 4.30 to 5.00

Identify the reported pIC50 for the following entry. CCc1nc(NC(=O)COS(=O)(=O)NC)sc1Cc1ccc(C)cc1 5.00 to 6.00

Identify the reported pIC50 for the following entry. Cc1ccc(Cc2sc(NC(=O)COS(=O)(=O)N3CCOCC3)nc2C)cc1 6.00 to 6.30

New cases:
Identify the reported pIC50 for the following entry. CNS(=O)(=O)OCC(=O)N(C)c1nc(C)c(Cc2cccc(Cl)c2)s1 ≥ 6.30

Identify the reported pIC50 for the following entry. Cc1nc(NC(=O)COS(=O)(=O)NCCF)sc1Cc1cccc(Cl)c1 6.00 to 6.30

Identify the reported pIC50 for the following entry. Cc1nc(NC(=O)COS(=O)(=O)N(C)C)sc1CCc1ccccc1 4.30 to 5.00

###

# reported pIC50; entries follow
TEST SYSTEM: MutSβ (Homo sapiens, UniProt P20585+P43246)
ASSAY NAME: MutSβ ADP Glo Assay
TEST PARAMETERS: 20nM MutSβ, 30nM CAG DNA, 25 µM ATP, 2 hours at room temperature
pIC50: −log10 of the molar value.

Identify the reported pIC50 for the following entry. Cc1ccc(Cc2sc(NC(=O)COS(=O)(=O)N(C)Cc3ccccc3)nc2C)cc1 5.00 to 6.00

Identify the reported pIC50 for the following entry. COCCNS(=O)(=O)OCC(=O)Nc1nc(C)c(Cc2cccc(Cl)c2)s1 6.00 to 6.30

New cases:
Identify the reported pIC50 for the following entry. COCCN(C)S(=O)(=O)OCC(=O)Nc1nc(C)c(Cc2ccc(C)cc2)s1 6.00 to 6.30

Identify the reported pIC50 for the following entry. CNS(=O)(=O)OCC(=O)Nc1nc(C)c(Cc2cc(Cl)ccc2F)s1 5.00 to 6.00

###

TEST SYSTEM: MutSβ (Homo sapiens, UniProt P20585+P43246)
ASSAY NAME: MutSβ ADP Glo Assay
TEST PARAMETERS: 20nM MutSβ, 30nM CAG DNA, 25 µM ATP, 2 hours at room temperature
REPORTED ENDPOINT: IC50

# count of solved cases: 4
Identify the reported IC50 for the following entry. Cc1ccc(Cc2sc(NC(=O)COS(=O)(=O)N3CC(F)C3)nc2C)cc1 0.5 to 1 µM

Identify the reported IC50 for the following entry. CNS(=O)(=O)OCC(=O)Nc1nc(C2CC2)c(Cc2ccc(C)cc2)s1 1 to 10 µM

Identify the reported IC50 for the following entry. CNS(=O)(=O)OCC(=O)Nc1nc(C)c(Cc2ccc(C(C)C)cc2)s1 10 to 50 µM

Identify the reported IC50 for the following entry. CNS(=O)(=O)OCC(=O)Nc1nc(C)c(C(C)(C)c2cccc(Cl)c2)s1 10 to 50 µM

Shifting focus to the molecule that follows.
Identify the reported IC50 for the following entry. CNS(=O)(=O)OCC(=O)Nc1nc(C)c(Cc2cccc(Cl)c2F)s1 1 to 10 µM

// data source = patent EP4574817A1
